These measurements were taken from the supplement of paper PMC11451515.

# Test system: P12-Ichikawa
# method summary: cell viability relative to DMSO control; higher = less cytotoxic
# measurement context: HPLM + 10% dialyzed FBS; 48 h; 0.000781 µM
metric name: cell viability (%)
Quick note: give the figure in %, leave out the unit.

1) Oc1ccc(-c2nc(-c3ccncc3)c(-c3ccc(F)cc3)[nH]2)cc1 : 115
2) Cc1ccc([S+](=O)([O-])NC(=O)NN2CC3CCCC3C2)cc1 (stereo not drawn) : 107

Next compound, please.
Ask | Report cell viability for `Cc1ccnc(N[S+](=O)([O-])c2ccc(NC(=O)Nc3ccc([S+](=O)([O-])Nc4nccc(C)n4)cc3)cc2)n1`
Reply | 92.4
